system: RFX393 (renal); experiment: MTT antiproliferative assay, RFX393; assay type: cell-based; details: MTT, 48 h; read-out: Antiproliferative Activity GI50, Renal RFX393

- COMPOUND: "COC(=O)[C@@H](NC(=O)CC(O)/C=C/CCS)C(C)C (some centres unmarked) [TDF6m]"
  UNITS_LABEL: "nM"
  GI50: 31700
- COMPOUND: "CCC(C)[C@H]1NC(=O)[C@H]2CSSCC/C=C/[C@H](CC(=O)N[C@H](CCSC)C(=O)N2)OC(=O)C[C@@H]1O (some centres unmarked) [TDP-A, Thailandepsin A, reference compound]"
  UNITS_LABEL: "nM"
  GI50: 0.47
- COMPOUND: "CCC(C)[C@H]1NC(=O)[C@H]2CSSCC/C=C/[C@H](CC(=O)N[C@H](CCSC)C(=O)N2)OC(=O)C[C@@H]1OC(=O)c1ccccc1 (some centres unmarked) [TDC1]"
  UNITS_LABEL: "nM"
  GI50: 35.1
- COMPOUND: "CCCC[C@H](NC(=O)CC(O)/C=C/CCS)C(=O)O (some centres unmarked) [TDF5]"
  UNITS_LABEL: "nM"
  GI50: 500
- COMPOUND: "CC(C)[C@H](NC(=O)CC(O)/C=C/CCS)C(=O)O (some centres unmarked) [TDF6]"
  UNITS_LABEL: "nM"
  GI50: 3100

----------
Reported values of Class I selectivity Ratio HDAC 1/HDAC8 for individual entries
molecular target: Recombinant human HDAC1 (Homo sapiens); construct: purchased BPS Bioscience Inc; assay: HDAC-Glo I/II assay, HDAC1; format: biochemical; settings: ratio of IC50 values
Sequence (Q13547 whole entry): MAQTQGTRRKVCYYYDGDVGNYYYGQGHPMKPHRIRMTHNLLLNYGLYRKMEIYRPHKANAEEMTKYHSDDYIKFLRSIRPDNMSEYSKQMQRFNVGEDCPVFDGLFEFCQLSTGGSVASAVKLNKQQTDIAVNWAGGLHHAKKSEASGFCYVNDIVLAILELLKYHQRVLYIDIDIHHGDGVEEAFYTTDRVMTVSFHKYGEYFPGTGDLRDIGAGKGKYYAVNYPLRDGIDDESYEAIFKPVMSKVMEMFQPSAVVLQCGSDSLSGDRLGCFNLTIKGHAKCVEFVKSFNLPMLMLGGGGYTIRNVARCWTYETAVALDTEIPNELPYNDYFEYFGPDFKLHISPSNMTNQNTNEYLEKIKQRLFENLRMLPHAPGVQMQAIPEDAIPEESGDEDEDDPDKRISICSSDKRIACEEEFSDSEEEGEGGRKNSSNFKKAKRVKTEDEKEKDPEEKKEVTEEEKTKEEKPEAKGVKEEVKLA

- COMPOUND: "CCCC[C@H](NC(=O)CC(O)/C=C/CCS)C(=O)OC (some centres unmarked)"
  Class I selectivity Ratio HDAC 1/HDAC8: 0.00159
- COMPOUND: "CCC(C)C(NC(=O)CC(O)/C=C/CCS)C(=O)OC (centres unmarked)"
  Class I selectivity Ratio HDAC 1/HDAC8: 0.00061
- COMPOUND: "CCC(C)[C@H]1NC(=O)[C@H]2CSSCC/C=C/[C@H](CC(=O)N[C@H](CCSC)C(=O)N2)OC(=O)C[C@@H]1OC(C)=O (some centres unmarked)"
  Class I selectivity Ratio HDAC 1/HDAC8: 0.00006
- COMPOUND: "CCCC[C@H]1NC(=O)C[C@H]2/C=C/CCSSC[C@@H](NC1=O)C(=O)N[C@H](C(C)CC)[C@@H](O)CC(=O)O2 (some centres unmarked) [TDP-B, Thailandepsin B, reference compound]"
  Class I selectivity Ratio HDAC 1/HDAC8: 0.00026
- COMPOUND: "CCC(C)[C@H]1NC(=O)[C@H]2CSSCC/C=C/[C@H](CC(=O)N[C@H](CCSC)C(=O)N2)OC(=O)C[C@@H]1O (some centres unmarked) [TDP-A, Thailandepsin A, reference compound]"
  Class I selectivity Ratio HDAC 1/HDAC8: 0.00065
- COMPOUND: "CCC(C)[C@H]1NC(=O)[C@H]2CSSCC/C=C/[C@H](CC(=O)N[C@H](CCSC)C(=O)N2)OC(=O)C[C@@H]1OCCC=O (some centres unmarked)"
  Class I selectivity Ratio HDAC 1/HDAC8: 0.00096
- COMPOUND: "CC(C)[C@H](NC(=O)CC(O)/C=C/CCS)C(=O)O (some centres unmarked)"
  Class I selectivity Ratio HDAC 1/HDAC8: 0.00003
- COMPOUND: "CCC(C)[C@H]1NC(=O)[C@H]2CSSCC/C=C/[C@H](CC(=O)N[C@H](CCSC)C(=O)N2)OC(=O)C[C@@H]1OC(=O)c1ccccc1 (some centres unmarked)"
  Class I selectivity Ratio HDAC 1/HDAC8: 0.00252
- COMPOUND: "CSCC[C@H]1NC(=O)CC(O)/C=C/CCSSC[C@H](C(=O)O)NC1=O (some centres unmarked)"
  Class I selectivity Ratio HDAC 1/HDAC8: 0.00036
- COMPOUND: "CCCC[C@H](NC(=O)CC(O)/C=C/CCS)C(=O)O (some centres unmarked)"
  Class I selectivity Ratio HDAC 1/HDAC8: 0.00002
- COMPOUND: "COC(=O)[C@H]1CSSCC/C=C/C(O)CC(=O)N[C@H](CCSC)C(=O)N1 (some centres unmarked)"
  Class I selectivity Ratio HDAC 1/HDAC8: 0.00028
